test: Antioxidant activity assessed as inhibition of AAPH-induced lipid peroxidation at 100 uM by UV spectrophotometry; type: functional
assay readout: inhibition (%)
Write the number in % without appending the unit.

Record excerpt, results attached:
{"columns": ["compound", "inhibition (%)"],
 "data": [
  ["COc1ccc(-c2cc3ccccc3oc2=O)cc1OC", 47],
  ["Cc1c(-c2ccccc2Br)c(=O)oc2ccccc12", 20]
]}

-- ask // lookup inhibition for COc1ccc(-c2c(C)c3ccccc3oc2=O)cc1
-- reply 24

-- ask Give the measured inhibition of Cc1c(-c2ccc(Br)cc2)c(=O)oc2ccccc12 .
-- reply 70

-- ask What value of measured inhibition is listed for Cc1c(-c2ccc(O)cc2)c(=O)oc2ccccc12 ?
-- reply 20

-- ask Given COc1ccc(-c2c(C)c3ccccc3oc2=O)cc1OC , state its recorded inhibition.
-- reply 36

-- ask Consider the compound shown here: Cc1c(C)c2c(c(C)c1O)CCC(C)(C(=O)O)O2 (configuration not stated) What is its recorded inhibition?
-- reply 63

Source of measurements: ChEMBL document CHEMBL1177775
